Reference source: paper PMC5910394

- tgt: Ile83Glu memAb anti-HER2 IgG
- Sequence (heavy, as listed by the source, chain 1 of 2): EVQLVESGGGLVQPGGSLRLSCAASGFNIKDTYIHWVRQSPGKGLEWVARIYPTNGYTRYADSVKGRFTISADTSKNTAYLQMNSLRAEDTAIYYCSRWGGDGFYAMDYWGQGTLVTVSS
- Sequence (light, as listed by the source, chain 2 of 2): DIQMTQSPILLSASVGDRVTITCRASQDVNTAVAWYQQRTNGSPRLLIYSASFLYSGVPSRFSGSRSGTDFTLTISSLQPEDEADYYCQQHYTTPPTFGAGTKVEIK
- assay-details: SPR; Ile83Glu memAb anti-HER2 amine-coupled on a CM5 chip, meditope flowed over at 30 uL/min, HBS-EP+, 25 °C, 1:1 model, global fit, n=1 (authors estimate the error at 10-50%)
Positions of bridges follow the written chain, without caps; N, C: chain ends. No end group written: not given here.
quantity-kind: Kd

>>> df
                                     binder  quantity_kind   result
0  Ac-CQFDLSTRRLRCGGSK (disulfide 1-12 (inferred)) [long meditope (Ac)…]             Kd  0.44 nM
